- assay text: self-splicing fitness, log relative to wild type (ln ratio); higher = more splicing; Tetrahymena group I intron in knt gene, E. coli kanamycin selection, DiMSum; sequences stand for … in CUCUCU…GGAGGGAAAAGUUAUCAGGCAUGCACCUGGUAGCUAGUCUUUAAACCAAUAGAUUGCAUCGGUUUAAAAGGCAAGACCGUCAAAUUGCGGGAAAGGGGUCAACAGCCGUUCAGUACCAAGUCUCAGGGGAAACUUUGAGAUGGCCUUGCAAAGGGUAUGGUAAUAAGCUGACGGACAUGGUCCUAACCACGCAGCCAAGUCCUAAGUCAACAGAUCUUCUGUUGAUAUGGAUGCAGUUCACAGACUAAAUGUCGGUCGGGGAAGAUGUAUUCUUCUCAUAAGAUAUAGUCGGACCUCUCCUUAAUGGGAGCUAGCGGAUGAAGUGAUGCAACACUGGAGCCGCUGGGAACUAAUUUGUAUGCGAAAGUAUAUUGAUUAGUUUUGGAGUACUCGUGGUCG;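 note: selection with 25 µg/mL kanamycin versus none on LB agar overnight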
- test context: 30 °C
self-splicing fitness (ln) values by entry

chain | self-splicing fitness (ln)
UUGCAGCAAUAUUACGCCGG | -0.957
UCCUAGCAAUAUUACGGACC | -2.64
CCACAGCAAUAUUACGUCGA | -2.93
CACAAGCAAUAUUACGUUCG | -0.461
CCGUAGCAAUAUUACGGGAU | -4.51

###

Here the recorded self-splicing fitness (ln) is given for each entry.
- assay text: self-splicing fitness, log relative to wild type (ln ratio); higher = more splicing; Tetrahymena group I intron in knt gene, E. coli kanamycin selection, DiMSum; sequences stand for … in CUCUCU…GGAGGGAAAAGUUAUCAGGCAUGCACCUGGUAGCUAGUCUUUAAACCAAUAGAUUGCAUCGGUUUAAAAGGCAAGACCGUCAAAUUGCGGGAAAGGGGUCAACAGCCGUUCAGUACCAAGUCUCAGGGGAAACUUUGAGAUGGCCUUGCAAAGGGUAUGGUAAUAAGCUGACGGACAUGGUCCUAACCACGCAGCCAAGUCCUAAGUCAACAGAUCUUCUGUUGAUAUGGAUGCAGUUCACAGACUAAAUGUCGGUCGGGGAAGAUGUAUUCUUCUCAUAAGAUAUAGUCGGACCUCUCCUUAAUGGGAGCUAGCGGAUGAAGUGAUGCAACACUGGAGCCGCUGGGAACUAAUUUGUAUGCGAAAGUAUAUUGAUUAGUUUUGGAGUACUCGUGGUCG
- test context: 30 °C

chain | self-splicing fitness (ln)
AAGAAGCAAUAUUACGGUGU | -1.99
ACGGAGCAAUAUUACGGUCU | -3.07
GGAAAGCAAUAUUACGCGAU | -2.98
AGUCAGCAAUAUUACGGAAG | -3.36
GGCUAGCAAUAUUACGCAGU | -1.78
GGCAAGCAAUAUUACGAGAG | -3.94
UAGGAGCAAUAUUACGUUCU | -3.31
AGCCAGCAAUAUUACGCGGG | -3.29
GAUGAGCAAUAUUACGGCGA | -2.19
ACACAGCAAUAUUACGGAGA | -4.21
AGCCAGCAAUAUUACGGUUU | -3.43
ACAAAGCAAUAUUACGACCC | -0.934
UCCUAGCAAUAUUACGGCCG | -4.16
ACCAAGCAAUAUUACGGGUC | -4.12
AACCAGCAAUAUUACGAGCC | -2.85
UACAAGCAAUAUUACGGGUU | -2.8
UACCAGCAAUAUUACGUGUA | -2.59
UAUCAGCAAUAUUACGAACU | -1.2
AUAUAGCAAUAUUACGCAAU | -1.49
CGGAAGCAAUAUUACGACUC | -0.372
UCAUAGCAAUAUUACGUUAG | -2.9
UUACAGCAAUAUUACGCUUC | -3.13
AGGGAGCAAUAUUACGGACA | -2.85
AUGGAGCAAUAUUACGCGAU | -2.66
GAGUAGCAAUAUUACGGCAC | -0.661
ACACAGCAAUAUUACGACGG | -0.479
GCUUAGCAAUAUUACGCCCA | -1.96
CCAGAGCAAUAUUACGGCGU | -4.2
CCCCAGCAAUAUUACGUGGA | -3.09
GCAUAGCAAUAUUACGCGCC | -3.02
CCAUAGCAAUAUUACGCACG | -0.758

###

# self-splicing fitness (ln) listing for each entry below
- assay text: self-splicing fitness, log relative to wild type (ln ratio); higher = more splicing; Tetrahymena group I intron in knt gene, E. coli kanamycin selection, DiMSum; sequences stand for … in CUCUCU…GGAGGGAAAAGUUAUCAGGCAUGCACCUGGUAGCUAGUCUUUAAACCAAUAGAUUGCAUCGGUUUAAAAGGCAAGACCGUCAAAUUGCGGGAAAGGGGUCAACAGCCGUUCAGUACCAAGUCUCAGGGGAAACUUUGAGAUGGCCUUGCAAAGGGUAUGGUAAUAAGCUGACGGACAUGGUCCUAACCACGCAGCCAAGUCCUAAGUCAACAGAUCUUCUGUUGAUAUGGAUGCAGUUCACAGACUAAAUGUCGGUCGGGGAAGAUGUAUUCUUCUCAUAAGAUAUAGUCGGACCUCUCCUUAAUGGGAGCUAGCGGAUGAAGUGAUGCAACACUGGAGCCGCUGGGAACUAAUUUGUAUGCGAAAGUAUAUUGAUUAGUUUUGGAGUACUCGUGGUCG
- test context: 37 °C

chain | self-splicing fitness (ln)
UGUCAGCAAUAUUACGUGUU | -1.23
ACAGAGCAAUAUUACGUGGC | -2.31
UUUUAGCAAUAUUACGUCUU | -1.33
GUCGAGCAAUAUUACGCCUC | -0.868
GAUCAGCAAUAUUACGCGGC | -2.89
UUACAGCAAUAUUACGAAAG | -2.73
CGUCAGCAAUAUUACGCCAU | -2.81
ACGUAGCAAUAUUACGUUGC | -1.68
